# Test system: maximal electroshock
# test: Modified maximal electroshock test (100 Hz, 0.1 sec., 150 volt) of hydrolyzable silanes, oral
# Format: in vivo, male Carworth mice
# settings: Mus musculus, sesame oil, 4 hrs. after dosing, read-out: Maximal Electroshock ED50 (95% C.I.)
property: ED50 (mg/kg)
Answer format: numeric, mg/kg implied, no suffix.

Record excerpt, results attached:
>>> recorded_value("CCCO[Si](OCCC)(c1ccccc1)c1ccccc1")
89
>>> recorded_value("CN(C)[Si](c1ccccc1)(c1ccccc1)N(C)C [.phi.2 Si[N(CH3)2]2]")
50
>>> recorded_value("CCO[Si](OCC)(c1ccccc1)c1ccccc1")
50

# input Given the compound `CC(C)O[Si](OC(C)C)(c1ccccc1)c1ccccc1` , write its reported ED50.
# output 99

# input Return reported ED50. Input compound: `c1ccc([SiH2]c2ccccc2)cc1`
# output 25

Values from patent US4006226A
